Every entry's value here was drawn from ChEMBL document CHEMBL1201862.

- Test system: SK-OV-3
- assayExplanation: NCI tumour cell line growth inhibition, 48 h
Activity calls are given as the source filed them. Cut-off read from the data, not from the text of the source: active = GI50 up to about 1.1 µM and inactive = higher.
Reported values of GI50 for individual entries

compound	targetEntity	GI50
Cc1nnc2n1N=C(c1ccccc1)C(c1ccccc1)S2 (stereo not given)	SK-OV-3	27.2 µM (inactive)
CCOC(=O)[C@@H]1OC(c2ccccc2)O[C@H]1C(=O)OCC	SK-OV-3	> 100 µM (inactive)
CN(C)CCOc1ccc2c(c1)C/C(=C/c1ncc([N+](=O)[O-])n1C)C2=O	SK-OV-3	4.8 µM (inactive)
N#Cc1nc(C(=O)c2ccccc2)oc1N	SK-OV-3	> 100 µM (inactive)
CCc1cccc(CC)c1NC(=O)C1=C(C)NC(C)=C(C(=O)Nc2c(CC)cccc2CC)C1c1ccc([N+](=O)[O-])cc1	SK-OV-3	38.1 µM (inactive)

###

- System: OVCAR-4
- assayExplanation: NCI tumour cell line growth inhibition, 48 h
Calls of active or inactive are those of the source. Rule as the data show it: active = GI50 up to about 1.1 µM and inactive = higher.
Reported values of GI50 for individual entries

compound	GI50
O=C(Nc1ccccc1)OCCN=C1c2ccccc2C(Br)C(Br)c2ccccc21 (stereo unspecified)	5.38 µM (inactive)
CC1=CP(=O)(c2c(C(C)C)cc(C(C)C)cc2C(C)C)CCC1Cl (stereo unspecified)	19.3 µM (inactive)
O=C(O/N=C1/CCC/C1=C\c1ccccc1)c1ccc([N+](=O)[O-])cc1	> 100 µM (inactive)
O=C(NCCCl)NCc1ccccc1	> 100 µM (inactive)
Cc1nnc2n1N=C(c1ccccc1)C(c1ccccc1)S2 (stereo unspecified)	57.9 µM (inactive)
CC1(C)CC23C(=O)N(c4ccccc4)C(Nc4ccccc4)=NC2=CC(C#N)=C(C#N)C3O1 (stereo unspecified)	22.6 µM (inactive)
O=C(CSCC(=O)N/N=C\c1cc(Br)cc(Br)c1O)N/N=C\c1cc(Br)cc(Br)c1O	14.4 µM (inactive)
COC(=O)C1(O)C(c2ccccc2)NC2(C)CCCC21 (stereo unspecified)	> 100 µM (inactive)
COc1cc(/C=C(\NC(=O)c2ccccc2)c2nc3ccc4c(c3[nH]2)C(=O)c2ccccc2C4=O)cc(OC)c1OC	69.3 µM (inactive)
CN(C)c1ccc(C2CC(=O)CC(c3ccc(N(C)C)cc3)C23C(=O)NC(=O)NC3=O)cc1 (stereo unspecified)	> 25 µM (inactive)
COC(=O)c1ccc([N+](=O)[O-])c(O)c1	19.9 µM (inactive)

###

- Tested on: A549
- assayExplanation: NCI tumour cell line growth inhibition, 48 h
Calls of active or inactive are those of the source. No stated cut-off is given here; in the data, active = GI50 up to about 1.1 µM and inactive = higher. Non-standard residues stand in square brackets, D forms with d. Residues, ends and D or L forms follow the SMILES beside them. ξ: configuration not given here. *: point of attachment. NMeF = CN[C@@H](Cc1ccccc1)C(=O)O; NMeN = CN[C@@H](CC(N)=O)C(=O)O; NMeV = CN[C@H](C(=O)O)C(C)C; ξNMeV = CNC(C(=O)O)C(C)C; Boc = CC(C)(C)OC(=O)*; ξNMeA = CNC(C)C(=O)O; ξV = CC(C)C(N)C(=O)O
Classes used: 1.0 (active), 0.0 (inactive)

compound	targetEntity	className
COc1cccc2c1C(=O)c1c(O)c3c(c(O)c1C2=O)C[C@@](O)(C(=O)CO)C[C@@H]3OC1CC2C(OCN3CN2COC2C(C)OC(O[C@H]4C[C@](O)(C(=O)CO)Cc5c(O)c6c(c(O)c54)C(=O)c4c(OC)cccc4C6=O)CC23)C(C)O1 (some centres not stated)	A549	1.0
O=C(NCCCl)NCc1ccccc1	A549	0.0
COC(=O)C(C)N(C)C(=O)[C@H](CC(N)=O)N(C)C(=O)[C@@H]1CCCN1C(=O)[C@H](C(C)C)N(C)C(=O)C(C(C)C)N(C)C(=O)[C@H](Cc1ccccc1)N(C)C(=O)C(NC(=O)OC(C)(C)C)C(C)C (some centres not stated) (Boc-[ξV][NMeF][ξNMeV][NMeV]P[NMeN][ξNMeA]-OMe)	A549	0.0
CCN(CC)C(=O)N[C@@H](Cc1ccccc1)C(=O)NC	A549	0.0
N=C(N)c1ccc(/N=N\c2c(O)ccc3cc4c(/N=N\c5ccc(C(=N)N)cc5)c(O)ccc4cc23)cc1	A549	0.0
O=C(O)c1ccc(Nc2c3ccccc3nc3ccccc23)cc1	A549	0.0
Cc1nnc2n1N=C(c1ccccc1)C(c1ccccc1)S2 (configuration not stated)	A549	0.0
